target: Ubiquitin-conjugating enzyme E2 N (Homo sapiens); assay: UBE2N binders by NMR, biophysical, purified protein (AID 1552); conditions: NMR binding to purified UBE2N
Active and inactive are the calls of the source. How the calls were made is not given here.
Overview of recorded Kd for various compounds

# compound, Kd
records = [
    ("O=C(Nn1cnnc1)c1cc2c(s1)CCCC2", "> 4 mM (inactive)"),
    ("Nc1c(Nc2ccccc2)c2ccccc2oc1=O", "> 4 mM (inactive)"),
    ("C/C=C(\\C)c1nnc(NC(=O)C(C)C)s1", "> 4 mM (inactive)"),
    ("Cc1nc(CC(=O)O)c(-c2ccccc2)s1", "> 4 mM (inactive)"),
    ("Cc1cc(C)n(CCC(=O)O)n1", "> 4 mM (inactive)"),
    ("NC(=O)c1cccc2c(=O)oc3ccccc3c12", "> 4 mM (inactive)"),
    ("CCN1CCC(NC2CCC(O)CC2)CC1 (stereo unspecified)", "> 4 mM (inactive)"),
    ("CC(C)(OC(=O)c1ccccc1)[C@@H]1Cc2cc3ccc(=O)oc3cc2O1", "> 4 mM (inactive)"),
]

Report measured Kd; entry is Cc1cccc(-n2c(N)cc(=O)[nH]c2=S)c1C > 4 mM (inactive)

Report measured Kd; entry is O=C1OC(N2CCOCC2)c2ccccc21 (stereo unspecified) > 4 mM (inactive)

Report measured Kd; entry is O=C(Nc1nc2c(s1)CCCC2)c1cccnc1 > 4 mM (inactive)

Report measured Kd; entry is COc1ccc(-c2oc3cc(O[C@H]4O[C@H](CO)[C@@H](O)[C@H](O)[C@H]4O)c(OC)c(O)c3c(=O)c2OC)cc1O > 4 mM (inactive)

Report measured Kd; entry is O=C(NCc1ccc2c(c1)OCO2)c1cccs1 > 4 mM (inactive)

----------
target: Ubiquitin-conjugating enzyme E2 N (Homo sapiens); test: UBE2N binders by NMR, biophysical, purified protein (AID 1552); details: NMR binding to purified UBE2N
The source made the active and inactive calls. No rule for the calls is given here.
reported_metric: Kd

Example entries begin here.
# compound, tested_target, data_value
measured = [
    ("CC1CN(C(=O)c2ccncc2)CC(C)O1 (centres undefined)", "Ubiquitin-conjugating enzyme E2 N (Homo sapiens)", "> 4 mM (inactive)"),
    ("CC(=O)N=c1cccc(NC(C)=O)n1O", "Ubiquitin-conjugating enzyme E2 N (Homo sapiens)", "> 4 mM (inactive)"),
    ("O=C(O)CNC(=O)c1ccccc1", "Ubiquitin-conjugating enzyme E2 N (Homo sapiens)", "> 4 mM (inactive)"),
    ("COc1c2ccccc2nc2occc12", "Ubiquitin-conjugating enzyme E2 N (Homo sapiens)", "> 4 mM (inactive)"),
    ("Cn1c(O)c(/C=C2\\C=CC=N2)c(=O)[nH]c1=S", "Ubiquitin-conjugating enzyme E2 N (Homo sapiens)", "> 4 mM (inactive)"),
    ("Nc1cccc(-c2cnco2)c1", "Ubiquitin-conjugating enzyme E2 N (Homo sapiens)", "> 4 mM (inactive)"),
    ("CSc1nnc(-c2ccccc2NC(C)=O)o1", "Ubiquitin-conjugating enzyme E2 N (Homo sapiens)", "> 4 mM (inactive)"),
    ("O=C(O)C1CC(=O)N(Cc2ccco2)C1 (centres undefined)", "Ubiquitin-conjugating enzyme E2 N (Homo sapiens)", "> 4 mM (inactive)"),
]

Report measured Kd; entry is Oc1ccc(C2SCCS2)cc1 > 4 mM (inactive)

Report measured Kd; entry is Cc1nnsc1C(=O)N(C)c1ccccc1 > 4 mM (inactive)

Report measured Kd; entry is O=C1Nc2ccccc2C1(O)Cc1ccncc1 (centres undefined) > 4 mM (inactive)

Report measured Kd; entry is CCOC(=O)c1c(C)n([O-])c2ccccc2[n+]1=O > 4 mM (inactive)

Report measured Kd; entry is CC(=O)Nc1cc(C(F)(F)F)ccc1N1CCOCC1 > 4 mM (inactive)

Report measured Kd; entry is N#Cc1cc2ccccc2nc1N > 4 mM (inactive)

Report measured Kd; entry is C[C@H]1[C@H](C)CC[C@]2(C(=O)O)CC[C@]3(C)C(=CCC4[C@@]5(C)C[C@@H](O)[C@H](O)[C@@](C)(CO)C5[C@H](O)C[C@]43C)[C@H]12 (some centres undefined) > 4 mM (inactive)

Report measured Kd; entry is O=CN1CCN(C(=O)c2ccco2)CC1 > 4 mM (inactive)

Report measured Kd; entry is C/C1=C\CCC(=O)C2CC(C)(C)C2CC1 (centres undefined) > 4 mM (inactive)

Report measured Kd; entry is Cc1nnc(NC(=O)C(C)Sc2nncn2C)s1 (centres undefined) > 4 mM (inactive)

Report measured Kd; entry is O=c1ccn(Cc2ccccc2)c(=O)n1Cc1ccccc1 > 4 mM (inactive)

----------
target: Ubiquitin-conjugating enzyme E2 N (Homo sapiens); test: UBE2N binders by NMR, biophysical, purified protein (AID 1552); conditions: NMR binding to purified UBE2N
The source made the active and inactive calls. The rule behind the calls is not given here.
reported_metric: Kd

Example entries begin here.
# compound, tested_target, Kd
data = [
    ("CC(=O)NCS(=O)(=O)c1ccc(C)cc1", "Ubiquitin-conjugating enzyme E2 N (Homo sapiens)", "> 4 mM (inactive)"),
    ("CC(=O)Nc1cccc(-c2n[nH]c(=S)n2C)c1", "Ubiquitin-conjugating enzyme E2 N (Homo sapiens)", "> 4 mM (inactive)"),
]

Report measured Kd; entry is C/C(=N\NC(N)=S)C(=O)O > 4 mM (inactive)

Report measured Kd; entry is CN1CCN(c2nc3c(c(=O)[nH]2)CCCC3)CC1 > 4 mM (inactive)

Report measured Kd; entry is Nc1ccc(N2CCOCC2)c(Cl)c1 > 4 mM (inactive)

Report measured Kd; entry is O=C(O)CC1C(=O)NCCN1Cc1ccccc1 (stereo not drawn) > 4 mM (inactive)

Report measured Kd; entry is CCCn1cnn2c(=O)cc(C)nc12 > 4 mM (inactive)

Report measured Kd; entry is NC(=O)CS(=O)(=O)c1ccc(Cl)cc1 > 4 mM (inactive)

Report measured Kd; entry is N#Cc1cnc(N2CCCCC2)nc1N > 4 mM (inactive)

Report measured Kd; entry is Cc1cc(NC(=O)c2ocnc2C)no1 > 4 mM (inactive)

Report measured Kd; entry is COc1ccccc1CNc1nc2nc(C)cc(=O)n2[nH]1 > 4 mM (inactive)

Report measured Kd; entry is CCOc1cc(S(=O)(=O)N2CCOCC2)ccc1F > 4 mM (inactive)

Report measured Kd; entry is CC(=O)Oc1cc(OC(C)=O)c2c(c1)O[C@H](c1ccc(OC(C)=O)c(OC(C)=O)c1)[C@H](OC(C)=O)C2 > 4 mM (inactive)

----------
Overview of recorded Kd for various compounds
biological target: UniProtKB P61088; test: UBE2N binders by NMR, biophysical, purified protein (AID 1552); details: NMR binding to purified UBE2N
Sequence (P61088 whole entry, looked up): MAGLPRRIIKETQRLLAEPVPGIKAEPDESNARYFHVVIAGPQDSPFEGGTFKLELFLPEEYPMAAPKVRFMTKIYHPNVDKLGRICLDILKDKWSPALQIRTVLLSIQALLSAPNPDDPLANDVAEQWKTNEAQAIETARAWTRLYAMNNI
The source made the active and inactive calls. How the calls were made is not given here.

# compound, tested_target, Kd
measured = [
    ("O=C(NCCO)c1ccccc1I", "UniProtKB P61088", "> 4 mM (inactive)"),
    ("O=C(O)c1cc2ccccc2o1", "UniProtKB P61088", "> 4 mM (inactive)"),
    ("CC1(C)CC2C1CCC1(C)OC2(C)CCC1O (configuration not stated)", "UniProtKB P61088", "> 4 mM (inactive)"),
]

Report measured Kd; entry is NC(c1ccccc1)c1ccccn1 (configuration not stated) > 4 mM (inactive)

Report measured Kd; entry is CC(=O)Nc1nnc(-c2ccco2)o1 > 4 mM (inactive)

Report measured Kd; entry is CN(C)C(=O)Oc1cccc(-c2nnco2)c1 > 4 mM (inactive)

Report measured Kd; entry is NC(=O)C1CCN(c2ncnc(N)c2[N+](=O)[O-])CC1 > 4 mM (inactive)

----------
biological target: Ubiquitin-conjugating enzyme E2 N (Homo sapiens); test: UBE2N binders by NMR, biophysical, purified protein (AID 1552); conditions: NMR binding to purified UBE2N
Active and inactive are the calls of the source. No rule for the calls is given here.
Overview of recorded Kd for various compounds

Example entries begin here.
# compound, Kd
records = [
    ("CC(C)=CCOc1cc2oc(=O)ccc2cc1O", "> 4 mM (inactive)"),
    ("Cn1c(=O)c2c(ncn2CCN)n(C)c1=O", "> 4 mM (inactive)"),
    ("O=c1c2c(nc3nc(Cc4ccccc4)[nH]n13)CCC2", "> 4 mM (inactive)"),
    ("O=C(Cn1cncn1)c1ccc(F)c(F)c1", "> 4 mM (inactive)"),
    ("O=C(Nc1ncccn1)c1cccc(F)c1", "> 4 mM (inactive)"),
]

Report measured Kd; entry is Cc1ccc(SCC(=O)N2CCOCC2)cc1 > 4 mM (inactive)

Report measured Kd; entry is CC(=O)Nc1cccs1 > 4 mM (inactive)

Report measured Kd; entry is Cc1ccc(-n2nnnc2SCC(N)=O)c(C)c1 > 4 mM (inactive)

Report measured Kd; entry is O=S1(=O)C=CC(N2CCCCC2)C1 (centres undefined) > 4 mM (inactive)

Report measured Kd; entry is Oc1ccc(C(=S)N2CCOCC2)cc1 > 4 mM (inactive)

Report measured Kd; entry is CC(=O)c1ccc[nH]1 > 4 mM (inactive)

Report measured Kd; entry is O=C1OCCC1Sc1nc2ccccc2c(=O)[nH]1 (centres undefined) > 4 mM (inactive)

Report measured Kd; entry is O=C(O)C1COc2ccccc2C1 (centres undefined) > 4 mM (inactive)
